# Tested on: HFF
# MEASUREMENT_DESCRIPTION: cell viability relative to DMSO control; higher = less cytotoxic
# EXPERIMENTAL_CONTEXT: 1 µM; 72 h

[
  {
    "MOLECULE": "COc1ccc2cc3[n+](cc2c1OCCN(CCn1cncn1)Cc1ccc(F)cc1F)CCc1cc2c(cc1-3)OCO2",
    "cell viability / %": 61.3
  },
  {
    "MOLECULE": "CCN(CC)CCCC(C)Nc1ccnc2cc(Cl)ccc12 (configuration not stated)",
    "cell viability / %": 66.4
  },
  {
    "MOLECULE": "CC1(C)C[C@H]1C(=O)N/C(=C\\CCCCSC[C@@H](N)C(=O)O)C(=O)O",
    "cell viability / %": 71.5
  },
  {
    "MOLECULE": "NC(=O)c1[nH]c2ccc(S(N)(=O)=O)cc2c1-c1ccccc1",
    "cell viability / %": 75.8
  },
  {
    "MOLECULE": "O=S(=O)(Nc1ccc(O)cc1)c1cccc2cccnc12",
    "cell viability / %": 66.5
  },
  {
    "MOLECULE": "O=S(=O)(Nc1ccc(-n2cccc2)cc1)c1ccc(Cl)c(Cl)c1",
    "cell viability / %": 64.5
  },
  {
    "MOLECULE": "COc1ccc2c(c1OC)C(=O)OC2C1c2c(cc3c(c2OC)OCO3)CCN1C (configuration not stated)",
    "cell viability / %": 74.8
  },
  {
    "MOLECULE": "CC(C)N(c1cc(-c2ccccc2)sc1C(=O)O)C(=O)[C@H]1CC[C@H](C)CC1",
    "cell viability / %": 67.5
  },
  {
    "MOLECULE": "Nc1nc(F)nc2c1ncn2[C@H]1O[C@@H](CO)[C@H](O)[C@@H]1O",
    "cell viability / %": 65
  },
  {
    "MOLECULE": "O=C(O)/C=C/C=C/c1cccc(Oc2cc(Cl)cc(Cl)c2)c1",
    "cell viability / %": 63.3
  },
  {
    "MOLECULE": "FC(F)(F)c1cc(C(F)(F)F)c2ccc3nc(-c4nnco4)cn3c2n1",
    "cell viability / %": 67.3
  },
  {
    "MOLECULE": "CN(O)C(=O)c1cc2c(CN3CCC[C@H]3C(N)=O)cn(Cc3ccc(F)cc3)c2cn1",
    "cell viability / %": 64.1
  },
  {
    "MOLECULE": "O=C1[C@H](CC[C@H](O)c2ccc(F)cc2)[C@@H](c2ccc(O)cc2)N1c1ccc(F)cc1",
    "cell viability / %": 73
  },
  {
    "MOLECULE": "OC(Cn1cncn1)(Cn1cncn1)c1ccc(F)cc1F",
    "cell viability / %": 66.7
  },
  {
    "MOLECULE": "CC(C)(C)c1cc(C(=O)/C(C#N)=N/Nc2cccc(Cl)c2)no1",
    "cell viability / %": 53
  },
  {
    "MOLECULE": "C[Si]1(C)CCN(Cc2cc(-c3ccc(Cl)cc3)n(-c3ccc(Cl)cc3)n2)CC1",
    "cell viability / %": 82.5
  },
  {
    "MOLECULE": "N=c1n(CCN2CCCCC2)c2ccccc2n1CC(O)COc1ccc(Cl)cc1Cl (configuration not stated)",
    "cell viability / %": 81.4
  },
  {
    "MOLECULE": "N[C@H]1CCC[C@H]1C(=O)O",
    "cell viability / %": 70.6
  },
  {
    "MOLECULE": "O=C(NCc1cccc2ccccc12)c1cccs1",
    "cell viability / %": 66
  },
  {
    "MOLECULE": "Nc1nc2c(ncn2COC(CO)CO)c(=O)[nH]1",
    "cell viability / %": 68.6
  },
  {
    "MOLECULE": "O=C(CCCC(F)(F)F)N1CCC(c2nc(-c3nccs3)no2)CC1",
    "cell viability / %": 67.4
  },
  {
    "MOLECULE": "COc1cccc(N2CCN(C3=Nc4c(F)cccc4[C@H](CC(=O)O)N3c3cc(C(F)(F)F)ccc3OC)CC2)c1",
    "cell viability / %": 55.7
  }
]
